Test system: hypoxemia animals
Experiment: Effect on partial pressure value of gases in arterial blood, oral administration system, Method B (3 days after acetic acid)
Assay type: in vivo, rat (Male wistar strain)
Conditions: 10 mg/kg, 60 min. after administration
Hi there, I'd appreciate the recorded Activity for Increasing PaO2: increment PaO2 for every entry that follows.

**Q:** Recorded Activity for Increasing PaO2: increment PaO2 for C=CCNc1nc(N[C@H]2CC[C@H](OCCOCC)CC2)c2ccn(C)c2n1 [Compound 187] , please?
**A:** +16.0 mmHg

**Q:** Now this one: C=CCNc1nc(NC(C)C)c2ccn(C)c2n1 [Compound 176]
**A:** +11.6 mmHg

**Q:** Now this one: C=CCNc1nc(NC(C)(C)C)c2ccn(C)c2n1 [Compound 178]
**A:** +17.0 mmHg

**Q:** Now this one: C=CCNc1nc(N[C@H]2CC[C@H](OC)CC2)c2ccn(C)c2n1 [Compound 186]
**A:** +14.9 mmHg

Value source: patent US5661148A
